# TARGET SYSTEM: Piezo-type mechanosensitive ion channel component 1 (Mus musculus)
# ASSAY EXPLANATION: Agonist activity at Piezo1 in mouse C3H 10T1/2 cells assessed as influx of calcium ions by measuring change in ratio of calcium fluorescence at 20 uM incubated for 2 hrs by Cal-bryte 520 AM dye based analysis relative to control
# Type: cell-based
# TEST CONDITIONS: filed as agonist
Think of 60% as a floor: if Percent change in calcium fluorescence ratio relative to control stands on it or above, it is condition met; beneath it, condition not met.

C[C@@H](O)CNc1ccc(-c2nnc(SCc3c(Cl)cccc3Cl)s2)nn1 = condition met
C[C@@H](O)CNc1cnc(-c2nnc(SC(c3c(Cl)cccc3Cl)C3CC3)s2)cn1 (some centres undefined) = condition met
CCC(Sc1nnc(-c2cnc(NC[C@@H](C)O)cn2)s1)c1c(Cl)cccc1Cl (some centres undefined) = condition met
OCCCNc1cnc(-c2nnc(SCc3c(Cl)cccc3Cl)s2)cn1 = condition met

Does the reported Percent change in calcium fluorescence ratio relative to control for C[C@@H](O)CNc1ncc(-c2nnc(SCc3c(Cl)cccc3Cl)s2)cn1 fall at or above the 60% mark?
condition not met

Does the reported Percent change in calcium fluorescence ratio relative to control for C[C@@H](O)CNc1cnc(-c2nnc(SCc3c(Cl)ccnc3Cl)s2)cn1 fall at or above the 60% mark?
condition met

Does the reported Percent change in calcium fluorescence ratio relative to control for O=C1CC2(CCN(c3cnc(-c4nnc(SCc5c(Cl)cccc5Cl)s4)cn3)CC2)CN1 fall at or above the 60% mark?
condition met

Does the reported Percent change in calcium fluorescence ratio relative to control for O[C@@H]1CN(c2cnc(-c3nnc(SCc4c(Cl)cccc4Cl)s3)cn2)C[C@@H]1O fall at or above the 60% mark?
condition met

Does the reported Percent change in calcium fluorescence ratio relative to control for CC(Sc1nnc(-c2cnc(NC[C@@H](C)O)cn2)s1)c1c(Cl)cccc1Cl (some centres undefined) fall at or above the 60% mark?
condition met

Does the reported Percent change in calcium fluorescence ratio relative to control for C[C@@H](O)CNc1cnc(-c2nnc(SCc3ccc4ncoc4c3)s2)cn1 fall at or above the 60% mark?
condition not met

Does the reported Percent change in calcium fluorescence ratio relative to control for C[C@@H](O)CNc1cnc(-c2nnc(SCc3c(Cl)cccc3Cl)s2)cn1 fall at or above the 60% mark?
condition met

Does the reported Percent change in calcium fluorescence ratio relative to control for C[C@@H](O)CNc1cncc(-c2nnc(SCc3c(Cl)cccc3Cl)s2)n1 fall at or above the 60% mark?
condition not met

Does the reported Percent change in calcium fluorescence ratio relative to control for CC(C)(O)[C@H](F)CNc1cnc(-c2nnc(SCc3c(Cl)cccc3Cl)s2)cn1 fall at or above the 60% mark?
condition not met

Does the reported Percent change in calcium fluorescence ratio relative to control for OCCOCCNc1cnc(-c2nnc(SCc3c(Cl)cccc3Cl)s2)cn1 fall at or above the 60% mark?
condition not met

Does the reported Percent change in calcium fluorescence ratio relative to control for C[C@@H](O)CNc1cnc(-c2nnc(SCc3ccccc3Cl)s2)cn1 fall at or above the 60% mark?
condition met

Does the reported Percent change in calcium fluorescence ratio relative to control for Cn1ncc2cc(CSc3nnc(-c4cnc(N5CCC6(CC5)CNC(=O)C6)cn4)s3)ccc21 fall at or above the 60% mark?
condition met

Does the reported Percent change in calcium fluorescence ratio relative to control for C[C@@H](O)CNc1cnc(-c2nnc(SCc3ccc4c(cnn4C)c3)s2)cn1 fall at or above the 60% mark?
condition met

Does the reported Percent change in calcium fluorescence ratio relative to control for C[C@H](O)CNc1cnc(-c2nnc(SCc3c(Cl)cccc3Cl)s2)cn1 fall at or above the 60% mark?
condition met

Does the reported Percent change in calcium fluorescence ratio relative to control for C[C@@H](O)CNc1cnc(-c2nnc(SCc3c(Cl)ccc(F)c3Cl)s2)cn1 fall at or above the 60% mark?
condition met
